The following molecules are shown together with reported activity at 10000 µM values.
# Tested on: S. aureus ATCC6538P
# test_name: Relative respiratory activity with 22 effectors (Example 3)
# Format: cell-based, Staphylococcus aureus
# test_context: Staphylococcus aureus, ATCC6538P; effector 10 mM, 5 μM DCIP, no effector = 100%, n = 20; read-out: relative %-respiratory activity
Just the number in %, nothing appended.

* OC[C@H]1O[C@@H]2O[C@H]3[C@H](O)[C@@H](O)[C@@H](O[C@H]4[C@H](O)[C@@H](O)[C@@H](O[C@H]5[C@H](O)[C@@H](O)[C@@H](O[C@H]6[C@H](O)[C@@H](O)[C@@H](O[C@H]7[C@H](O)[C@@H](O)[C@@H](O[C@H]8[C@H](O)[C@@H](O)[C@@H](O[C@H]1[C@H](O)[C@H]2O)O[C@@H]8CO)O[C@@H]7CO)O[C@@H]6CO)O[C@@H]5CO)O[C@@H]4CO)O[C@@H]3CO [Beta-cyclodextrin] | 98
* CC(O)C(=O)O (stereo not shown) [Lactic acid, lactic acid] | 622

Need activity at 10000 µM, item O=C(O)CC(=O)O [Malonic acid]
117

activity at 10000 µM lookup needed for CC(=O)C(=O)O [Pyruvic acid] , thanks.
313

* * *

# Test system: E. aerogenes ATCC13048e
# test_name: Relative respiratory activity with 22 effectors (Example 3)
# Type: cell-based, Enterobacter aerogenes
# test_context: Klebsiella aerogenes, ATCC13048E, read-out: relative %-respiratory activity
Below, each entry is listed with its recorded activity at 10000 µM.
Please answer using a numeric value trailed by its unit.

Below, 3 compounds whose answers are already recorded.
- N=C(N)NCCC[C@H](N)C(=O)O [L-arginine]: 129%
- NCCCC[C@H](N)C(=O)O [L-lysine]: 125%
- N[C@@H](Cc1c[nH]c2ccccc12)C(=O)O [L-tryptophan]: 126%

Consider the record given below.
Can you share its activity at 10000 µM? I mean this compound: O=CO [Formic acid]
124%

* * *

# System: E. coli HB101
# test_name: Relative respiratory activity with 22 effectors (Example 3)
# Type: cell-based
# test_context: Escherichia coli, HB101; effector 20 mM, 5 μM DCIP, no effector = 100%, n = 18
value_type: activity at 20000 µM (%)
Use % as the unit, but write only the number.

• O=C[C@@H](O)[C@@H](O)[C@H](O)[C@H](O)CO = 222
• OC[C@H]1O[C@@](CO)(O[C@H]2O[C@H](CO)[C@@H](O)[C@H](O)[C@H]2O)[C@@H](O)[C@@H]1O = 110
• C[C@H](O)[C@H](O)[C@@H](O)[C@@H](O)C=O = 103

What value of activity at 20000 µM on E. coli HB101 does O=C(CO)[C@@H](O)[C@H](O)[C@H](O)CO have?
202

Under E. coli HB101: activity at 20000 µM value of O=C[C@@H](O)[C@H](O)[C@H](O)CO ?
107

Report activity at 20000 µM for OC[C@H]1O[C@@H](O[C@H]2[C@H](O)[C@@H](O)C(O)O[C@@H]2CO)[C@H](O)[C@@H](O)[C@H]1O (stereo partly drawn) tested on E. coli HB101.
192

Field: activity at 20000 µM (E. coli HB101). Entry: O=C(O)CC(O)(CC(=O)O)C(=O)O
137

Query the reported activity at 20000 µM for E. coli HB101; item: O=C[C@H](O)[C@@H](O)[C@@H](O)[C@H](O)CO
153

Record O=C[C@H](O)[C@@H](O)[C@H](O)CO : what is its activity at 20000 µM with E. coli HB101?
110

Data origin, for the record: patent US20070099259A1
